This collection of values is drawn from the NIST ThermoML archive (doi:10.1021/acs.jced.8b00601).

assay: activity coefficient (dimensionless); of the first substance listed, at infinite dilution; xn = mol fraction of the nth substance listed; conditions: 343 K; 101.33 kPa; Liquid; Chromatography; x1 = 0
Parameter activity coefficient: see the listing below.
EXPERIMENTAL READOUT: activity coefficient

| MOLECULE | RECORDED NUMBER |
| --- | --- |
| c1ccccc1 [benzene] + O=S(=O)([N-]S(=O)(=O)C(F)(F)F)C(F)(F)F.O=S(=O)([N-]S(=O)(=O)C(F)(F)F)C(F)(F)F.O=S(=O)([N-]S(=O)(=O)C(F)(F)F)C(F)(F)F.c1ccc2cc(-n3cc[n+](Cc4cc(C[n+]5ccn(-c6ccc7ccccc7c6)c5)cc(C[n+]5ccn(-c6ccc7ccccc7c6)c5)c4)c3)ccc2c1 | 0.994 |
| Cc1cccc(C)c1 [1,3-dimethylbenzene] + O=S(=O)([N-]S(=O)(=O)C(F)(F)F)C(F)(F)F.O=S(=O)([N-]S(=O)(=O)C(F)(F)F)C(F)(F)F.O=S(=O)([N-]S(=O)(=O)C(F)(F)F)C(F)(F)F.c1ccc2cc(-n3cc[n+](Cc4cc(C[n+]5ccn(-c6ccc7ccccc7c6)c5)cc(C[n+]5ccn(-c6ccc7ccccc7c6)c5)c4)c3)ccc2c1 | 1.26 |
| ClCCCl [1,2-dichloroethane] + O=S(=O)([N-]S(=O)(=O)C(F)(F)F)C(F)(F)F.O=S(=O)([N-]S(=O)(=O)C(F)(F)F)C(F)(F)F.O=S(=O)([N-]S(=O)(=O)C(F)(F)F)C(F)(F)F.c1ccc2cc(-n3cc[n+](Cc4cc(C[n+]5ccn(-c6ccc7ccccc7c6)c5)cc(C[n+]5ccn(-c6ccc7ccccc7c6)c5)c4)c3)ccc2c1 | 0.679 |
| CCCC(C)=O [pentan-2-one] + O=S(=O)([N-]S(=O)(=O)C(F)(F)F)C(F)(F)F.O=S(=O)([N-]S(=O)(=O)C(F)(F)F)C(F)(F)F.O=S(=O)([N-]S(=O)(=O)C(F)(F)F)C(F)(F)F.c1ccc2cc(-n3cc[n+](Cc4cc(C[n+]5ccn(-c6ccc7ccccc7c6)c5)cc(C[n+]5ccn(-c6ccc7ccccc7c6)c5)c4)c3)ccc2c1 | 0.341 |
| CCCCCCCC [octane] + O=S(=O)([N-]S(=O)(=O)C(F)(F)F)C(F)(F)F.O=S(=O)([N-]S(=O)(=O)C(F)(F)F)C(F)(F)F.O=S(=O)([N-]S(=O)(=O)C(F)(F)F)C(F)(F)F.c1ccc2cc(-n3cc[n+](Cc4cc(C[n+]5ccn(-c6ccc7ccccc7c6)c5)cc(C[n+]5ccn(-c6ccc7ccccc7c6)c5)c4)c3)ccc2c1 | 9.43 |
| O=C1CCCCC1 [cyclohexanone] + O=S(=O)([N-]S(=O)(=O)C(F)(F)F)C(F)(F)F.O=S(=O)([N-]S(=O)(=O)C(F)(F)F)C(F)(F)F.O=S(=O)([N-]S(=O)(=O)C(F)(F)F)C(F)(F)F.c1ccc2cc(-n3cc[n+](Cc4cc(C[n+]5ccn(-c6ccc7ccccc7c6)c5)cc(C[n+]5ccn(-c6ccc7ccccc7c6)c5)c4)c3)ccc2c1 | 1 |
